# Tested on: T1, his-tagged murine TIGIT (Acro Biosystems #TIT-M52E6) (murine, UniProt P86176 29-148, limits assumed)
# T1 construct: Bought protein; also called mouse his-tagged TIGIT; not shown: his tag
# T1 sequence (looked up): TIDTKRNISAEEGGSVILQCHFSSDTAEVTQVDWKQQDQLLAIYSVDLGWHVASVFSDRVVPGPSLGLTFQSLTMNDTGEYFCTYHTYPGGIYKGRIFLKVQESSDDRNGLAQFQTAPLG
# Test protocol: SPR (Carterra LSA), scFv-Fc captured, His-TIGIT analyte; repeat
Attribute measured: pKd
By convention, pKd is the negative base-10 log of a molar concentration.

Some solved entries appear below for comparison.
Binder | Attribute measured | Result number
43586p1.2.G10 (scFv, V domains shown) VH: EVQLLESGGGLVQPGGSLRLSCAASGFTFDDYVMSWVRQAPGKELEWVSLINWNGDKTCYADSVKGRFTISRDNSKNTLYLQMNSLRAEDTAIYYCAKHWIVFQYGMDVWGQGTTVTVSS VL: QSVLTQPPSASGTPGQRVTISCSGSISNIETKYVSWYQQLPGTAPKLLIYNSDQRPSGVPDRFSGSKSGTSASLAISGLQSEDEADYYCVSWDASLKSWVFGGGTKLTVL | pKd | 8.00
43586p1.2.B2 (scFv, V domains shown) VH: EMQLLESGGGLVQPGGSLRLSCAASGFTFDDYVMSWVRQAPGKGLEWVSLINWNGDKTYYADSVKGRFTISRDNSKNTLYLQMNSLRAEDTAIYYCAKHWIVFQYGMDVWGQGTTVTVSS VL: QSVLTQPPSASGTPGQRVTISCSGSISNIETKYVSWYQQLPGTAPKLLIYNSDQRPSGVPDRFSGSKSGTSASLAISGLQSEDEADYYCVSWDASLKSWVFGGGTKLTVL | pKd | 8.89

// below: pKd requested for another binder
# pKd of 43586p1.2.E1 (scFv, V domains shown) VH: EVQLLESGGGLVQPGGSLRLSCAASGFTFSDYLMTWVRQAPGKELEWVSTITWDGDRTYYADSVKGRFTISRDNSKNTLYLQMNSLRAEDTAVYYCAKHWTVFQYGMDVWGQGTTVTVSS VL: QSVLTQPPSASGTPGQRVTISCSGTISNIEIKYVSWYQQLPGTAPKLLIYGNHQRPSGVPDRFSGSKSGTSASLAISGLQSEDEADYYCSSWENDLKSWVFGGGTKLTVL = 7.66
